Here, each record is paired with measured PE binding ELISA OD data.
Biological target: T1, mouse common cytokine receptor γ-chain (IL-2Rγ) (mouse, UniProt P34902 23-263, limits assumed)
T1 construct: Recombinant mouse IL-2Rγ protein; also called mo IL-2R; mouse IL-2R gamma
T1 sequence (looked up): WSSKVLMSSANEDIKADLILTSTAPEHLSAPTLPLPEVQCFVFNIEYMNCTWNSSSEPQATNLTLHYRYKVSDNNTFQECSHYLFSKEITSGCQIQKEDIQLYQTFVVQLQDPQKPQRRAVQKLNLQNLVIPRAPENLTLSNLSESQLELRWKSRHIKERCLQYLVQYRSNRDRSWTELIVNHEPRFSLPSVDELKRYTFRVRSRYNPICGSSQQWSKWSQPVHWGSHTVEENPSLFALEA
Test: P.E. binding ELISA
Readout name: PE binding ELISA OD (OD450 nm)

• FJ1427_P035MP07G07 (VHH, tested as periplasmic extract; also called Clone nr) VHH: QVQLVESGGGLVQAGGSLRLSCAASGRTLSRYAMGWFRQAPGKEREFVTANSWGGDTYYADSVQGRFTFSRDNAKNTVYLQMNSLQPEDTAVYYCAAAPTSFATTAYSSSNSYAYWGQGTQVTVSS = 0.045
• FJ1427_P035MP07H01 (VHH, tested as periplasmic extract; also called Clone nr) VHH: QVQLVESGGGLVQAGGSLRLFCATSGRTLSRYAMGWFRQAPGREREFVACDSWGGDTFYADSVKGRFTFSRDSAKNTVYLQMNSLQPEDTAVYYCAAAPTSFATTAYSSSNSYAYWGQGTQVTVSS = 0.133
